Molecular target: Histone-lysine N-methyltransferase EHMT2 (Homo sapiens)
Sequence (Q96KQ7 whole entry): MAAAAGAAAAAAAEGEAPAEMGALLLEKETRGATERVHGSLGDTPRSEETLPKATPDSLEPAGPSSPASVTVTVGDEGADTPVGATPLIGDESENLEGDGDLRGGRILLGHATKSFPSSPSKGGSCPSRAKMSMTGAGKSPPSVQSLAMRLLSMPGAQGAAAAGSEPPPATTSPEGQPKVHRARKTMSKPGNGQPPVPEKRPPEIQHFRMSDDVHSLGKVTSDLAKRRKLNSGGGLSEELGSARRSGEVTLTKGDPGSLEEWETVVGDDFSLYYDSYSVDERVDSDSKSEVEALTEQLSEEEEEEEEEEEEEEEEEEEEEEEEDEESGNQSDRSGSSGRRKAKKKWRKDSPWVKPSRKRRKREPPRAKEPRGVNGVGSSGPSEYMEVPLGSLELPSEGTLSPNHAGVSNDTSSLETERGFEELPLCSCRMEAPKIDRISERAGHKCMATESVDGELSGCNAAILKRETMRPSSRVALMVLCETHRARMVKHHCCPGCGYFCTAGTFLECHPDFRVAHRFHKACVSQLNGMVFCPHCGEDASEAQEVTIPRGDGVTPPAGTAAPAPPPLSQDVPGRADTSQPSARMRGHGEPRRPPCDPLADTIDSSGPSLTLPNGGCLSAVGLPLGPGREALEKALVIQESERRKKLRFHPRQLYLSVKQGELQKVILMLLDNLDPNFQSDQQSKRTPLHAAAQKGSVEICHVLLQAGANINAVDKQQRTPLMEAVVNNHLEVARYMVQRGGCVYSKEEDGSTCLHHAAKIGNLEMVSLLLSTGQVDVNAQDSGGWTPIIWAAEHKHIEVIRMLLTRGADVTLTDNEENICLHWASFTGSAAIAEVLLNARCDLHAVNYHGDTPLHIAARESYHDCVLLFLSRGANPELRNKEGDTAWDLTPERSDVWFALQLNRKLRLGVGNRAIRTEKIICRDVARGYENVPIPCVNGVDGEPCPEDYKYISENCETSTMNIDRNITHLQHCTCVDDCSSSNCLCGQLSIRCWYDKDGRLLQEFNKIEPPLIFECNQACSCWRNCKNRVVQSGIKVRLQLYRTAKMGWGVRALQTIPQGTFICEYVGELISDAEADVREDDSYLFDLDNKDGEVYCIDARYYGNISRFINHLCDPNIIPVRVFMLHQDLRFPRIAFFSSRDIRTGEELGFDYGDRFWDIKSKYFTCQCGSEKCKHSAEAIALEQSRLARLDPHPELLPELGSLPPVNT
Response field label: string, one of 1 (IC50 strictly below 30 nM) or -1.

CNc1cc(C)nc(Nc2ccc(OC)c(C3=CCN(CCO)CCC3)c2)n1 ... -1
CNc1cc(C)nc(Nc2ccc(OC)c(C3=CCN(C)C3)c2)n1 ... -1
CNc1cc(C)nc(Nc2ccc(C#N)c(C3=CCNCCC3)c2)n1 ... 1
CNc1cc(C)nc(Nc2ccc(OC)c(C3=CCNCC3)c2)n1 ... -1
CNc1cc(C)nc(Nc2ccc(OC)c(C3CCCNCC3)c2)n1 (racemic) ... 1
CNc1cc(C)nc(Nc2ccc(OC(F)F)c(C3=CCNCCC3)c2)n1 ... 1
CNc1cc(C)nc(Nc2ccc(OC)c(N3CCN(C)CC3)c2)n1 ... -1
CNc1cc(C)nc(Nc2ccc(OC(F)(F)F)c(C3=CCNCCC3)c2)n1 ... -1

I wonder whether `CNc1cc(C)nc(Nc2ccc(OC)c(C3=CCCNCC3)c2)n1` has IC50 below 30 nM. Can you tell?
-1

I wonder whether `CNc1cc(C)nc(Nc2ccc(OC)c(C3=CCNCCC3)c2)n1` has IC50 below 30 nM. Can you tell?
1

I wonder whether `CNc1cc(C)nc(Nc2ccc(OC)c(C3=CCN(C)CC3)c2)n1` has IC50 below 30 nM. Can you tell?
-1
